System Tested: Mitogen-activated protein kinase kinase kinase 19 (Homo sapiens)
Sequence (Q56UN5 whole entry): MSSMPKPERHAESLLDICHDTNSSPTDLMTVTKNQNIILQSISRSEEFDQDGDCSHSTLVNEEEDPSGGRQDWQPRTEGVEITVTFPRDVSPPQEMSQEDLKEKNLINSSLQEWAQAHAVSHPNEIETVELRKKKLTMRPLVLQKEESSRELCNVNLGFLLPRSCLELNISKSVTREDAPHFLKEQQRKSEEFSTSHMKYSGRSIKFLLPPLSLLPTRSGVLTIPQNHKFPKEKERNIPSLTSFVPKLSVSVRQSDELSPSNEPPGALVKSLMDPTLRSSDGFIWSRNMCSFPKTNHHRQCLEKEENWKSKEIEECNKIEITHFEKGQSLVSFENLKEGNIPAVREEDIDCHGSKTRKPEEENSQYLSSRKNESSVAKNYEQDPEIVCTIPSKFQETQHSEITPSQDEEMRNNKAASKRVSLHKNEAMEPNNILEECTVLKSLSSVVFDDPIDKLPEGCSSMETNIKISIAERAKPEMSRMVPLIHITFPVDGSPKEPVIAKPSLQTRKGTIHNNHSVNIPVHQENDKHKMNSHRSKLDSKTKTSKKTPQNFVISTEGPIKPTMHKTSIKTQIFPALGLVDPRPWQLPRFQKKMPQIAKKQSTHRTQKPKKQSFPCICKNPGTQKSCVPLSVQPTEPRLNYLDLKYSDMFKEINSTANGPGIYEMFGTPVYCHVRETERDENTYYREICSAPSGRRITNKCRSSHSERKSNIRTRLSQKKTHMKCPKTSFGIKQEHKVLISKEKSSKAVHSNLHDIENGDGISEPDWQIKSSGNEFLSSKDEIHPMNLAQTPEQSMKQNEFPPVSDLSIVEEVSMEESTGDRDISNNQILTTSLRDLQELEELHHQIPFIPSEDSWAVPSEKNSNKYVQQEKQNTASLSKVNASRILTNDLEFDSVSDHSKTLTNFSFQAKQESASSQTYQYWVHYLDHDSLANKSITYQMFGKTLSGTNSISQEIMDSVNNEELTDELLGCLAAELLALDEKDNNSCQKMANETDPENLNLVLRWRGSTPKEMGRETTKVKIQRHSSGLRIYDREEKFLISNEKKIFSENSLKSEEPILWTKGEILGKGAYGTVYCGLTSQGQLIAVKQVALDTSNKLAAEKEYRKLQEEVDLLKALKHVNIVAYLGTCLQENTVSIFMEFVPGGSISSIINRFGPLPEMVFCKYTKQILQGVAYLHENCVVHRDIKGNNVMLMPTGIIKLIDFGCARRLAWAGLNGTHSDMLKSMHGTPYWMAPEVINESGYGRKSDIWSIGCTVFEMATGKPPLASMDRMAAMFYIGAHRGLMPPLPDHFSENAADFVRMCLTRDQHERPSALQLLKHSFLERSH
Measurement Notes: Selectivity interaction (NanoBRET assay (HEK293T cells)) EUB0000305b MAP3K19
pIC50: −log10 of the molar value.
Parameter: pIC50

Enquiry: If you can, please state the reported pIC50 value of `C[C@H](c1ccnc(Nc2nc3ccc(-c4cc(N(C)C)ncn4)cc3[nH]2)c1)N1CCN(C(=O)CC(F)(F)F)CC1` .
Return: < 4.70

====

System Tested: Bromodomain-containing protein 9 (Homo sapiens, UniProt Q9H8M2)
Sequence (Q9H8M2 whole entry): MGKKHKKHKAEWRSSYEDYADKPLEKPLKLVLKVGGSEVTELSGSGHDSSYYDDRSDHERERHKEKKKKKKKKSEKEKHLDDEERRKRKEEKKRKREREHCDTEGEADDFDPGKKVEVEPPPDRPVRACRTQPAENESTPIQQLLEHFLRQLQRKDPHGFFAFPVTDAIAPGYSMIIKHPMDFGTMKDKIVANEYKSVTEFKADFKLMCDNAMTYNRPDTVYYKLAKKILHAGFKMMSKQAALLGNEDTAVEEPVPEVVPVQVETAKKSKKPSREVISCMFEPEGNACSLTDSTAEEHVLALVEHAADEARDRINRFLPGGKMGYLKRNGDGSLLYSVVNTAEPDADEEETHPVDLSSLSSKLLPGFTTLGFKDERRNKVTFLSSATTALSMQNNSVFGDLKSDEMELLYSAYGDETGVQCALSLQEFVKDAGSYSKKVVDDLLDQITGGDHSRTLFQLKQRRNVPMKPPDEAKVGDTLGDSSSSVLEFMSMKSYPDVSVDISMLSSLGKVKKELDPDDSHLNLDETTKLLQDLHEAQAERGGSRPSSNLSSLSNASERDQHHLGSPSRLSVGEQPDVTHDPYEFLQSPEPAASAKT
Measurement Notes: Selectivity interaction (BROMOscan™ panel (DiscoverX)) EUB0000256b BRD9
Parameter: Ki
Reply with the number, then its unit.

Enquiry: Given the entry `CN1C[C@H](Nc2cnn(C)c(=O)c2Br)C[C@H](c2ccccc2)C1` , report its measured Ki.
Return: 1400 nM

====

System Tested: UniProtKB P49759
Sequence (P49759 whole entry): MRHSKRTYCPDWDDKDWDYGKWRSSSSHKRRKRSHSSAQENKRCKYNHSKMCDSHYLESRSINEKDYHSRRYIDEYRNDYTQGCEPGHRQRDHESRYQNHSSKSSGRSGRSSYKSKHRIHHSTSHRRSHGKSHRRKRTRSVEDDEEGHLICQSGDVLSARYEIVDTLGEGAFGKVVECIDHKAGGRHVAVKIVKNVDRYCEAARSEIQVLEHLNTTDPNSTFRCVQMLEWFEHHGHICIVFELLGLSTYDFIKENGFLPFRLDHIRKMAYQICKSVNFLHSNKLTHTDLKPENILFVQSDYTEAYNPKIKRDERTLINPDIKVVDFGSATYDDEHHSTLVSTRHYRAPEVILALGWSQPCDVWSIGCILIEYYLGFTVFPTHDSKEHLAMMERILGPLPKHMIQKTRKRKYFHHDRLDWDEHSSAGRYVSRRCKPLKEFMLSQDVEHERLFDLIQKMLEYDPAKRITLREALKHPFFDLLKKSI
Measurement Notes: Selectivity interaction (KinomeScan (DiscoverX, competition-binding assay)) EUB0000637a CLK1
Parameter: pKd
Notebook: values listed as pKd are -log10 of the concentration (mol/L).

Enquiry: Can you share its pKd? I mean this compound: `NC(=O)c1ccc2nc(-c3ccc(C4(N)CCC4)cc3)c(-c3ccccc3)n2n1`
Return: 6.51

====

System Tested: Histone-lysine N-methyltransferase KMT5C (Homo sapiens)
Sequence (Q86Y97 whole entry): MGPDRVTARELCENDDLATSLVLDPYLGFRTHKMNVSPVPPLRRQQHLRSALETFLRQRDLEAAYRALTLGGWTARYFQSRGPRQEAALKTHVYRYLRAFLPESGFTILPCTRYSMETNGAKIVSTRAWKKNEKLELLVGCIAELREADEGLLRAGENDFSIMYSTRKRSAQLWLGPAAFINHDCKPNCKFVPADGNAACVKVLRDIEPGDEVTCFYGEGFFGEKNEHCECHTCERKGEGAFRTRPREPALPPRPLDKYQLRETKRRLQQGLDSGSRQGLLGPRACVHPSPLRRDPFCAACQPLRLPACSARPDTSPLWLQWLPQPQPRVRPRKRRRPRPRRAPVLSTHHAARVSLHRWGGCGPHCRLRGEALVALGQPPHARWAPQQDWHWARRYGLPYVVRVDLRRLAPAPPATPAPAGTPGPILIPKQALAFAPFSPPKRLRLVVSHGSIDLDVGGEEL
Measurement Notes: Selectivity interaction (HMT panel) EUB0000194b SUV420H2
pIC50: −log10 of the molar value.
Parameter: pIC50

Enquiry: For `COc1cc2c(NC3CCN(C(C)C)CC3)nc(N3CCC(F)(F)CC3)nc2cc1OCCCN1CCCC1` , what is its reported pIC50?
Return: < 5.00

====

System Tested: Alpha-1B adrenergic receptor (Homo sapiens)
Sequence (P35368 whole entry): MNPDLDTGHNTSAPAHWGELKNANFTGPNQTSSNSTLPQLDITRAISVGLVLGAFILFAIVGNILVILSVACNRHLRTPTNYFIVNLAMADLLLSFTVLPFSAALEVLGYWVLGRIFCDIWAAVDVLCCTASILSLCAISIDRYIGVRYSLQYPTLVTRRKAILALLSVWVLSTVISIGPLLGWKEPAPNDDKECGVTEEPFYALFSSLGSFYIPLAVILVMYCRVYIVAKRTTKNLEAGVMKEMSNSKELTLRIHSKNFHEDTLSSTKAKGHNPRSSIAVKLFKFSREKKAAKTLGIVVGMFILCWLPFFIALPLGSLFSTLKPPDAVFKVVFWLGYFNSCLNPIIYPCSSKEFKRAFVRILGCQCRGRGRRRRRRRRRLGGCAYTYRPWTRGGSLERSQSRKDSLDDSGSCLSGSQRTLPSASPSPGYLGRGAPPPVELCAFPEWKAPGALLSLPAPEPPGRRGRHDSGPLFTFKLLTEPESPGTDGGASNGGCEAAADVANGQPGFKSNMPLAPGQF
Measurement Notes: Selectivity interaction (Receptors and enzyme panel (internal screening at GSK)) EUB0000215b ADRA1B
Parameter: pIC50
In textbook form, pIC50 equals minus log to base ten of the concentration in mol/L.

Enquiry: Give the measured pIC50 of `CCCc1cc(C)[nH]c(=O)c1CNC(=O)c1cc(-c2ccnc(N3CCN(C)CC3)c2)cc2c1cnn2C(C)C` .
Return: 5.00

====

System Tested: Mu-type opioid receptor (Homo sapiens)
Sequence (P35372 whole entry): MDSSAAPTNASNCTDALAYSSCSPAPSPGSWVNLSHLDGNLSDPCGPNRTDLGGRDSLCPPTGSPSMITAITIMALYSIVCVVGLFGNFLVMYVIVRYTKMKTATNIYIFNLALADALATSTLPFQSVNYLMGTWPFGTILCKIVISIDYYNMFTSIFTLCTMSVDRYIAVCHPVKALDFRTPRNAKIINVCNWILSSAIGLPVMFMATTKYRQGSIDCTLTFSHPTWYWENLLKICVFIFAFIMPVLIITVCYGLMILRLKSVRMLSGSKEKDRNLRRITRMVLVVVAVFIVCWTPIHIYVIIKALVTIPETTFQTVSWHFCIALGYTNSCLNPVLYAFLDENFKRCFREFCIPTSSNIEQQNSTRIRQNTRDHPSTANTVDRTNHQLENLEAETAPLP
Measurement Notes: Selectivity interaction (GPCR panel (PDSP screen)) EUB0000705a OPRM1
Parameter: pKi
# pKi = -log10(concentration in molar units)

Enquiry: Quick one: pKi of CN1CCN(C(=O)C(C)(C)c2ccc(C(=O)Nc3cn4cc(-c5cc(C(C)(C)C)cc(C(C)(C)C)c5)ccc4n3)cc2)CC1 [T3-CLK-N] ?
Return: 5.34
